Data credit: BindingDB's records for doi:10.1021/jm020994z

target: Sigma intracellular receptor 2 (Rattus norvegicus); assay: Binding affinity of compound was tested for Sigma receptor type 2
MEASURED PROPERTY: pKi
Formally, pKi is defined as -log10 of the concentration c, with c in mol/L.

COc1ccccc1C(=O)CCCCCN1CCN(c2noc3ccccc23)CC1 has a reported pKi of 6.83

###

experiment: Binding affinity of compound was tested for Sigma receptor type 1
Exercise: state measured pKi for each of the compounds provided.
Formally, pKi is defined as -log10 of the concentration c, with c in mol/L.

O=C(CCCCCN1CCN(c2noc3ccccc23)CC1)c1ccccc1O has a reported pKi of 7.21

COc1ccccc1C(=O)CCCCCN1CCN(c2noc3ccccc23)CC1 has a reported pKi of 5.37
